# pIC50 values compiled below
System under test: CHK1 kinase (Homo sapiens, UniProt O14757)
Sequence (O14757 1-476): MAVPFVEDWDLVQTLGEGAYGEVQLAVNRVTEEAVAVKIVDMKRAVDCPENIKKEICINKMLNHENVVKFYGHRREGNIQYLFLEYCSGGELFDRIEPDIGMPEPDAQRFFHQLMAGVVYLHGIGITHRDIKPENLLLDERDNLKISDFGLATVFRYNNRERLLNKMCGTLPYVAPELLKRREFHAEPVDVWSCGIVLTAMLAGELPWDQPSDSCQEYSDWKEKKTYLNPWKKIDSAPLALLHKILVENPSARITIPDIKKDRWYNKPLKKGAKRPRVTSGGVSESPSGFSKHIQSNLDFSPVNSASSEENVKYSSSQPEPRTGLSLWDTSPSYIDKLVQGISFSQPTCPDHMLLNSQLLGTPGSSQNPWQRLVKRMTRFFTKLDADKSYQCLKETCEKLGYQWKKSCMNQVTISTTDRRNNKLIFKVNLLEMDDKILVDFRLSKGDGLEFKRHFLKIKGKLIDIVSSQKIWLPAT
pIC50: −log10 of the molar value.

Solved cases below.
O=c1c(NCc2cccc(O)c2)c(Nc2cc3nc[nH]c3cc2F)c1=O
< 6.00
O=C(O)CC(Nc1c(Nc2ccc3[nH]cnc3c2)c(=O)c1=O)c1cccc(O)c1 (stereo not shown)
< 6.00
O=c1c(NCc2cc(O)cc(O)c2)c(Nc2ccc3[nH]cnc3c2)c1=O
> 6.00

--- query ---
Query: pIC50 for `O=c1c(NCc2ccc(F)c(F)c2)c(Nc2ccc3[nH]cnc3c2)c1=O` ?
Response: < 6.00
